System: Mus musculus
Test: Neurotoxicity in Mus musculus Kunming (mouse) assessed as minimal motor impairment at 300 mg/kg, ip at 0.5 hr by rotarod test
Format: toxicity, organism-based
Parameters: dose 300 mg/kg, route intraperitoneal
Settings: in vivo
quantity_name: Activity

CCCCCCCCCc1nncn1-c1ccc2nc(-c3ccccc3)oc2c1 : Toxic
Fc1ccc(-c2nncn2-c2ccc3nc(-c4ccccc4)oc3c2)cc1 : Non-toxic
Clc1ccccc1-c1nncn1-c1ccc2nc(-c3ccccc3)oc2c1 : Non-toxic
Clc1cccc(-c2nncn2-c2ccc3nc(-c4ccccc4)oc3c2)c1 : Toxic
